- Test system: Dd2
- ASSAY_TEXT: qHTS profiling for inhibitors of Plasmodium falciparum proliferation (AID 504749); also: nearly all actives have a fitted effect of over 60% in size; also: potency is read from the fitted curve at half-maximal effect
- ASSAY_CONDITIONS: P. falciparum in erythrocytes, SYBR Green DNA, 72 h; series mostly up to 28.7 µM
Results filed as inconclusive are left out. Calls of active or inactive are those of the source. Calls follow the shape of the dose curve; as a rule, active = well fitted inhibition curve with a large enough effect; inconclusive = small, poorly fitted or top-dose-only effect; inactive = flat fitted curve, though single readings scatter.
QUANTITY: Potency

N[C@@H](C(=O)N[C@@H]1C(=O)N2C(C(=O)O)=C(Cl)CS[C@H]12)c1ccccc1    inactive
Cn1nnc2c(C(N)=O)ncn2c1=O    inactive
COc1ccc2cc3[n+](cc2c1OC)CCc1cc2c(cc1-3)OCO2    0.794 µM (active)
CCOC(=O)[C@H](CCc1ccccc1)N[C@H]1CS[C@H](c2cccs2)CN(CC(=O)O)C1=O    inactive
CC(C)OC(=O)C(C(=O)OC(C)C)=C1SC=CS1    inactive
Cc1ccnc2c1NC(=O)c1cccnc1N2C1CC1    inactive
O=c1cc(O)c(Cl)c[nH]1    inactive
Nc1nc(N)c2nc(CNc3ccc(C(=O)NC(CCC(=O)O)C(=O)O)cc3)cnc2n1 (configuration not stated)    inactive
CC(N)C12CC3CC(CC(C3)C1)C2 (configuration not stated)    inactive
Cc1cccc(Nc2ccncc2S(=O)(=O)NC(=O)NC(C)C)c1    inactive

Please tell me: Potency of C1CCC(C(CC2CCCCN2)C2CCCCC2)CC1 (configuration not stated) , system Dd2?
12.6 µM (active)

Tell me reported Potency for COc1cc2c(Nc3ccc(Br)cc3F)ncnc2cc1OCC1CCN(C)CC1 , tested with Dd2.
8.91 µM (active)

----------
- Tested on: TAB113
- ASSAY_TEXT: qHTS profiling for inhibitors of Plasmodium falciparum proliferation (AID 504749); also: nearly all actives have a fitted effect of over 60% in size
- ASSAY_CONDITIONS: P. falciparum in erythrocytes, SYBR Green DNA, 72 h; series mostly up to 28.7 µM
Records with an inconclusive call do not appear. The source made the active and inactive calls. Calls follow the shape of the dose curve; as a rule, active = well fitted inhibition curve with a large enough effect; inconclusive = small, poorly fitted or top-dose-only effect; inactive = flat fitted curve, though single readings scatter.
// allowed return values: yes (active), no (inactive)

// param item: CCn1cc(C(=O)O)c(=O)c2cc(F)c(N3CCNCC3)nc21 ; yields the recorded call
no

Look up the recorded call for CCCc1nc(C)c2c(=O)[nH]c(-c3cc(S(=O)(=O)N4CCN(CC)CC4)ccc3OCC)nn12 in this test.
no

// return assay outcome for Cc1nnc(NS(=O)(=O)c2ccc(N)cc2)s1
no

Called result for NC(=O)N1c2ccccc2CC(=O)c2ccccc21
no

Record lookup: outcome of this test for CC(C)OC(=O)C(C(=O)OC(C)C)=C1SC=CS1 ?
no

Outcome? COc1ncnc(NS(=O)(=O)c2ccc(N)cc2)c1OC
no

Hi team, can someone confirm the assay call for CNS(=O)(=O)Cc1ccc2[nH]cc(CCN(C)C)c2c1 ?
no

Query: recorded result category for N[C@@H](C(=O)N[C@@H]1C(=O)N2C(C(=O)O)=C(Cl)CS[C@H]12)c1ccccc1 in this test
no

What outcome does the record of this test show for COc1cc2c(Nc3ccc(Br)cc3F)ncnc2cc1OCC1CCN(C)CC1 ?
yes

Could you kindly confirm the outcome this assay logged for CC(C)NCC(O)c1ccc(NS(C)(=O)=O)cc1 (stereo not drawn) ?
no

Any idea what this test logged for CCc1c2c(nc3ccc(OC(=O)N4CCC(N5CCCCC5)CC4)cc13)-c1cc3c(c(=O)n1C2)COC(=O)[C@]3(O)CC ?
no

Answer briefly: the call reported for N=C(N)c1ccc(OCCCCCOc2ccc(C(=N)N)cc2)cc1 in this assay.
yes

Please share the test call associated with CCCN[C@H]1CCc2nc(N)sc2C1 .
no

Identify the outcome logged in this assay for the molecule shown: Cc1oc(=O)oc1CN1CCN(c2cc3c(cc2F)c(=O)c(C(=O)O)c2n3C(C)S2)CC1 (stereo not drawn)
yes

Dear all, I need the recorded test outcome for O=S(=O)(O)CCS , thank you.
no

// param item: O=c1cc(O)c(Cl)c[nH]1 ; yields the recorded call
no

How was CCN(C)C(=O)Oc1cccc([C@H](C)N(C)C)c1 classified in this test?
no

// return assay outcome for CCc1cc(C(N)=S)ccn1
no

----------
- Tested on: ATS95
- ASSAY_TEXT: qHTS profiling for inhibitors of Plasmodium falciparum proliferation (AID 504749); also: nearly all actives have a fitted effect of over 60% in size
- ASSAY_CONDITIONS: P. falciparum in erythrocytes, SYBR Green DNA, 72 h; series mostly up to 28.7 µM
Records with an inconclusive call do not appear. Active and inactive are the calls of the source. Calls follow the shape of the dose curve; as a rule, active = well fitted inhibition curve with a large enough effect; inconclusive = small, poorly fitted or top-dose-only effect; inactive = flat fitted curve, though single readings scatter.
Pick one: 1.0 = active, 0.0 = inactive

What did this assay record as the result for CC(C)Cn1cnc2c(N)nc3ccccc3c21 ?
0.0

Identify the outcome logged in this assay for the compound shown: COC(=O)Nc1nc2ccc(Sc3ccccc3)cc2[nH]1
0.0

Which result was noted for this compound in the test: COc1cc2c(Nc3ccc(Br)cc3F)ncnc2cc1OCC1CCN(C)CC1
1.0

// return assay outcome for S=P(N1CC1)(N1CC1)N1CC1
0.0

Could you kindly confirm the outcome this assay logged for CCc1c2c(nc3ccc(OC(=O)N4CCC(N5CCCCC5)CC4)cc13)-c1cc3c(c(=O)n1C2)COC(=O)[C@]3(O)CC ?
0.0

Dear colleague, could you share the recorded outcome for COc1cc(NS(=O)(=O)c2ccc(N)cc2)nc(OC)n1 when you have a moment?
0.0

What was the test verdict on N[C@@H](C(=O)N[C@@H]1C(=O)N2C(C(=O)O)=C(Cl)CS[C@H]12)c1ccccc1 ?
0.0

Outcome? COc1ccc(C(=O)CC(=O)c2ccc(C(C)(C)C)cc2)cc1
0.0

Hi team, can someone confirm the assay call for CC[C@H](C)C(=O)O[C@H]1C[C@@H](C)C=C2C=C[C@H](C)[C@H](CC[C@@H]3C[C@@H](O)CC(=O)O3)[C@H]21 ?
0.0

Record lookup: outcome of this test for Cc1nnc(NS(=O)(=O)c2ccc(N)cc2)s1 ?
0.0

----------
- ASSAY_TEXT: Quantitative High-Throughput drug screen in 47 multiple myeloma cell lines against the NCATS MIPE library collection: OPM2_DSMZ cell viability assay (AID 1919872); also: nearly all actives have a fitted effect of over 30% in size
- ASSAY_CONDITIONS: OPM2 myeloma viability, CellTiter-Glo ATP luminescence, 48 h; series mostly up to 45.8 µM
Results filed as inconclusive are left out. Calls of active or inactive are those of the source. Calls come from the whole dose curve; as a rule, active = well fitted cell-killing curve with a large enough effect; inconclusive = small, poorly fitted or top-dose-only effect, or effect the other way; inactive = no such curve, though single readings can be large or run the other way.
Use one of these outcomes when replying: active, inactive

Status in this test for COc1cc2ncnc(Nc3cccc(Cl)c3)c2cc1OC ?
inactive

Hi team, can someone confirm the assay call for CC(=O)[C@H]1CC[C@H]2[C@@H]3CC=C4C[C@@H](O)CC[C@]4(C)[C@H]3CC[C@]12C ?
inactive

// return assay outcome for O=S(=O)(O)CCS
inactive

Recorded call for O=C(O)C1CCCN(CCC=C(c2ccccc2)c2ccccc2)C1 (stereo not given) ?
inactive

Each compound tested received a call. Report the one for C[C@@H]1C[C@H]2[C@@H]3CCC4=CC(=O)C=C[C@]4(C)[C@@]3(Cl)[C@@H](O)C[C@]2(C)[C@@]1(OC(=O)c1ccco1)C(=O)CCl .
active

----------
- ASSAY_TEXT: Counterscreen qHTS for small molecule stabilizers of the endoplasmic reticulum resident proteome: GLuc-NoTag assay (AID 1508627);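 also: SH-SY5Y cells given compound then 100 nM thapsigargin to empty ER calcium; 0% = thapsigargin alone and -100% = DMSO vehicle control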
- ASSAY_CONDITIONS: Gaussia luciferase NoTag secretion counterscreen, luminescence, thapsigargin 100 nM for final 4 h; series mostly up to 76.4 µM
Records with an inconclusive call do not appear. The source made the active and inactive calls. Calls follow the shape of the dose curve; as a rule, active = well fitted inhibition curve with a large enough effect; inconclusive = small, poorly fitted or top-dose-only effect; inactive = no such curve, though single readings can be large or run the other way.
QUANTITY: outcome

These solved cases illustrate the format of a correct answer.
CCOc1cc(N)c(Cl)cc1C(=O)NCC1CN(Cc2ccc(F)cc2)CCO1 (stereo not given)    inactive
CC(C)(Sc1cc(C(C)(C)C)c(O)c(C(C)(C)C)c1)Sc1cc(C(C)(C)C)c(O)c(C(C)(C)C)c1    inactive
COc1c(N2CCNC(C)C2)c(F)cc2c(=O)c(C(=O)O)cn(C3CC3)c12 (stereo not given)    inactive
Oc1c(Cl)cc(Cl)c2cccnc12    inactive

Please give the measured outcome for this molecule: CCn1cc(C(=O)O)c(=O)c2cc(F)c(N3CCNCC3)nc21
inactive

----------
- ASSAY_TEXT: qHTS Screen of the MIPE 4.0 Collection Against Ewings Sarcoma (RDES) (AID 1259252); also: nearly all actives have a fitted effect of over 35% in size
- ASSAY_CONDITIONS: RD-ES Ewing sarcoma viability, CellTiter-Glo, 48 h; series mostly up to 45.8 µM
Results filed as inconclusive are left out. Active and inactive are the calls of the source. The call rests on the fitted dose curve; in most records, active means well fitted inhibition curve with a large enough effect; inconclusive means small, poorly fitted or top-dose-only effect; inactive means no such curve, though single readings can be large or run the other way.
Respond with a class label; see yes for active, no for inactive

Which outcome was entered for the molecule CN(Cc1cc(Br)cc(Br)c1N)C1CCCCC1 in this test?
no

GET /call?item= CN(CCOc1ccc(CC2SC(=O)NC2=O)cc1)c1ccccn1 (stereo not drawn) returns the recorded outcome of this test.
yes

Identify the outcome logged in this assay for the molecule shown: Nc1ccc(S(=O)(=O)Nc2ccccn2)cc1
no

Hey, what did the test say about Cc1ccnc2c1NC(=O)c1cccnc1N2C1CC1 ?
no

# lookup: test call for CCCCS(=N)(=O)CCC(N)C(=O)O (stereo not drawn)
yes

// outcome(item) with item = CS(=O)(=O)c1ccc([C@@H](O)[C@@H](CO)NC(=O)C(Cl)Cl)cc1
yes

Please let me know the test result on file for CCCc1nc(C)c2c(=O)[nH]c(-c3cc(S(=O)(=O)N4CCN(CC)CC4)ccc3OCC)nn12 .
yes

Please share the test call associated with CCn1cc(C(=O)O)c(=O)c2cc(F)c(N3CCNCC3)cc21 .
no

Called result for COc1ccc2cc3[n+](cc2c1OC)CCc1cc2c(cc1-3)OCO2
yes

Kindly provide the recorded test outcome for the following molecule: C[C@@H](NCCCc1cccc(C(F)(F)F)c1)c1cccc2ccccc12
no

Dear colleague, could you share the recorded outcome for CNC1CCCN(c2c(F)cc3c(=O)c(C(=O)O)cn(C4CC4)c3c2OC)C1 (stereo not drawn) when you have a moment?
yes

Given NS(=O)(=O)c1cc2c(cc1Cl)NC(C(Cl)Cl)NS2(=O)=O (stereo not drawn) , state the outcome it received in this test.
no

// outcome(item) with item = CN(C)c1ccc(C(=C2C=CC(=[N+](C)C)C=C2)c2ccc(N(C)C)cc2)cc1
yes

I'd appreciate the recorded outcome for CCc1cc(C(N)=S)ccn1 from this test.
no

Record request — test call for Cc1noc(NS(=O)(=O)c2ccc(N)cc2)c1C
no

How was O=C(O)c1cc(=O)[nH]c(=O)[nH]1 classified in this test?
no

Query: recorded result category for O[C@@H](CNC[C@H](O)[C@H]1CCc2cc(F)ccc2O1)[C@@H]1CCc2cc(F)ccc2O1 in this test
yes

Give the logged outcome of this assay for the following molecule: N[C@@H](Cc1ccc(O)c(O)c1)C(=O)O
no

Tell me the assay call for COc1cc2ncnc(Nc3cccc(Cl)c3)c2cc1OC please.
yes

How was CN1CCN(c2c(F)cc3c(=O)c(C(=O)O)cn4c3c2OCN4C)CC1 classified in this test?
no

Any idea what this test logged for CN(C)CCc1c[nH]c2ccc(CS(=O)(=O)N3CCCC3)cc12 ?
no

Assay result, entry COc1ccc(-c2ccc3cc(C(=O)O)ccc3c2)cc1C12CC3CC(CC(C3)C1)C2 — outcome?
yes

Dear colleague, could you share the recorded outcome for COc1cc(NCc2ccc3nc(N)nc(N)c3c2C)cc(OC)c1OC when you have a moment?
yes
